assay: NCI Yeast Anticancer Drug Screen. Data for the rad50 strain (AID 155);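 also: 0% = growth of vehicle-only cultures of the same strain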; settings: S. cerevisiae rad50 strain growth inhibition; at 50.0 µM; active compounds read high
This is part of a sample that, as a whole, favours compounds with a hit. Of some 79,000 tested, about 15% had one in any assay. Active and inactive are the calls of the source. Rule as the data show it: active = growth inhibition above about 70%; inactive = the rest.
Quick reference for growth inhibition among some compounds

CCOC(=O)CC1c2ccc(O)cc2OC(=O)C1c1ccc(N)cc1 (stereo unspecified) | -29.1% (inactive)
CC(C)N1C(=O)c2ccccc2C1=O | 26.8% (inactive)
CC(c1ccccc1)C(C)(C#N)c1ccccc1 (stereo unspecified) | 2.8% (inactive)
COc1ccc(NC(=O)CSc2nnc(Cc3ccccc3)o2)cc1 | -49.5% (inactive)
COC(=N)c1nnn(-c2ccccc2)n1 | -8.6% (inactive)

Okay, next one:
# growth inhibition (compound: COCc1ccccc1P(c1ccccc1COC)c1ccccc1COC ) is 31% (inactive)

---

Each item that follows carries a reported growth inhibition.
experiment: NCI Yeast Anticancer Drug Screen. Data for the sgs1 mgt1 strain (AID 161);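 also: 0% = growth of cultures given vehicle only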; conditions: S. cerevisiae sgs1 mgt1 strain, at 50.0 µM, active compounds read high
The panel holds about 79,000 compounds, 15% with a hit somewhere; the sample as a whole holds those more often. Activity calls are given as the source filed them. Rule as the data show it: active = growth inhibition above about 70%; inactive = the rest.

Nc1nnc(Sc2n[nH]c(=O)[nH]c2=O)s1 | -14.3% (inactive)
CCOc1c(N=Nc2ccccc2[N+](=O)[O-])c(C)nn1C(N)=S | 24.5% (inactive)
Cc1ccc(NC(=S)NC(Cc2ccccc2)c2ccccc2)cc1 (configuration not stated) | -1.05% (inactive)
COc1c(Cl)cc([N+](=O)[O-])cc1Cl | 3.1% (inactive)
COc1cc(-c2cc(=O)c3c(OC)c(OC)c(OC)cc3o2)c(OC)c(OC)c1OC | 3.05% (inactive)
CN1CNC(=S)NC1 | 11% (inactive)

// field: growth inhibition; key: COc1ccc2c(c1)C1c3ccccc3CCN1CCC2 (configuration not stated) ; value = -23.1% (inactive)

---

assay: NCI Yeast Anticancer Drug Screen. Data for the cln2 rad14 strain (AID 165);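 also: 0% = growth equal to vehicle treated cultures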; conditions: S. cerevisiae cln2 rad14 strain, at 50.0 µM, active compounds read high
The panel holds about 79,000 compounds, 15% with a hit somewhere; the sample as a whole holds those more often.
observable: growth inhibition (%)
Note: unit % is implicit; provide only the numeric part.

CC1([N+](=O)[O-])COC2(CCCCC2)OC1 | -22.1
O=[N+]([O-])c1ccc(-c2csc(NCC3CCCO3)n2)cc1 (stereo not drawn) | 21.1
CC(=O)c1c(-c2ccc(Cl)cc2)c(C#N)c(=S)n(C2OC(CO)C(O)C(O)C2O)c1C (stereo not drawn) | 14.8
CCN(CC)C1=Nc2ccccc2N(c2ccccc2)C(=S)C1 | 13.9
Cc1nc2c(N3CCCCC3)ncnc2o1 | -28.7

The recorded growth inhibition for Oc1cc(-c2ccc(Cl)cc2)cn2c1nc1ccccc12 is -24.1

Documented growth inhibition of CC(=O)OC1CCC2(C)C(=CCC3C2CCC2(C)C3CCC23SCCS3)C1 (stereo not drawn) : -60.1

---

// reported growth inhibition per item
assay: NCI Yeast Anticancer Drug Screen. Data for the mec2-1 strain (AID 157); settings: S. cerevisiae mec2-1 strain, at 50.0 µM, active compounds read high
Compounds without any hit were thinned out: in the full panel of roughly 79,000, 15% have a hit.
Give the number; % is assumed, so skip it.

Check out these entries, answers already filled in.
O=C(NC1CC1)c1ccccc1 | 1.6
CC1(C)S/C(=C\c2ccccc2)c2nc3ccccc3c(=O)n21 | -7.2
COC(=O)c1ccccc1N=CCC(C)CCCC(C)(C)O (stereo unspecified) | 4.4
COc1cc(C(=O)O)ccc1OC(C)=O | -20.1
CCOC(=O)CC(c1ccc2c(c1)OCO2)c1cc(OC)c(OC)c(OC)c1 (stereo unspecified) | 24.9

Could you now look at the following molecule, please?
Recorded result, CNCC(O)(C(=O)O)C(=O)O , growth inhibition: -45.9
